Field: MIC. Provide a value for each of the compounds that follow.
system: Staphylococcus aureus; experiment: Minimum inhibitory concentration against Staphylococcus aureus; assay type: functional
One number for each entry, in µg/mL.

Nc1nc(CC(=O)N[C@@H]2C(=O)N3C(C(=O)O)=C(Cl)CSC23)cs1 (some centres not stated) ... 1
CO[C@@]1(NC(=O)Cc2csc(N)n2)C(=O)N2C(C(=O)O)=C(Cl)CSC21 (some centres not stated) ... 16
O=C(Cc1cccs1)N[C@@H]1C(=O)N2C(C(=O)O)=C(Cl)CSC12 (some centres not stated) ... 0.5

Could you report MIC for every entry in the following list?
1. N[C@@H](C(=O)N[C@@H]1C(=O)N2C(C(=O)O)=C(Cl)CS[C@H]12)c1ccccc1.O
2. O=C(COc1ccccc1)N[C@@H]1C(=O)N2C(C(=O)O)=C(Cl)CSC12 (some centres not stated)

Result:
1
0.25
